Target: Ectonucleoside triphosphate diphosphohydrolase 2 (Homo sapiens)
Sequence (whole entry): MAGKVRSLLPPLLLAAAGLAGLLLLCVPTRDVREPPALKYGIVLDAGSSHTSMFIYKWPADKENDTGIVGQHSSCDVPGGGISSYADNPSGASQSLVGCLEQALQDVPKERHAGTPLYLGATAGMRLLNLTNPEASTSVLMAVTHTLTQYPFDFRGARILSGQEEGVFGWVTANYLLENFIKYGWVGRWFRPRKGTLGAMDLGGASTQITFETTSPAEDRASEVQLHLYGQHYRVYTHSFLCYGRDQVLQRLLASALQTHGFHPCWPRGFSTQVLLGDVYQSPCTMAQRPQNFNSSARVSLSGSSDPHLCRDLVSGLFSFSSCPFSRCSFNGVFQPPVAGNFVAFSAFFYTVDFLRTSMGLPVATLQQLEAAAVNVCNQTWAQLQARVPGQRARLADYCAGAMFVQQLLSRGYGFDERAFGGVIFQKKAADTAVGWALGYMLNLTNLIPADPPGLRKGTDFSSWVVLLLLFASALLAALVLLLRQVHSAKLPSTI
Experiment: Inhibition of human NTPdase-2 expressed in COS7 cell membranes at 100 uM using ATP as substrate preincubated for 3 mins followed by susbtrate addition and measured after 10 mins by malachite green dye based method
Activity calls are given as the source filed them. No cut-off for these calls is given here.
Could you please pick one outcome from this set? active, inactive

Here are 5 molecules together with their reported answers.
O=c1ccn(COCCOP(=S)(S)OP(=O)(O)CP(=O)(O)O)c(=O)[nH]1 (stereo unspecified)	active
O=c1ccn(COCCOP(=O)(O)CP(=O)(O)O)c(=O)[nH]1	active
O=c1ccn(COCCOP(=O)(O)C(Cl)(Cl)P(=O)(O)O)c(=O)[nH]1	active
O=c1ccn(COCCO[PH](=O)O)c(=O)[nH]1	inactive
O=c1ccn(COCCOP(=O)(O)O)c(=O)[nH]1	inactive

Then there is this molecule:
Inquiry: What did the test return for O=c1ccn(COCCOP(=S)(S)OP(=O)(O)C(Cl)(Cl)P(=O)(O)O)c(=O)[nH]1 (stereo unspecified) ?
Reply text: active

----------
target: P2Y purinoceptor 2 (Homo sapiens) (UniProt P41231); experiment: Agonist activity at human P2Y2 receptor expressed in AD293 cells assessed as inositol-1-phosphate accumulation at 100 uM; format: functional, cell-based
Sequence (P41231 whole entry): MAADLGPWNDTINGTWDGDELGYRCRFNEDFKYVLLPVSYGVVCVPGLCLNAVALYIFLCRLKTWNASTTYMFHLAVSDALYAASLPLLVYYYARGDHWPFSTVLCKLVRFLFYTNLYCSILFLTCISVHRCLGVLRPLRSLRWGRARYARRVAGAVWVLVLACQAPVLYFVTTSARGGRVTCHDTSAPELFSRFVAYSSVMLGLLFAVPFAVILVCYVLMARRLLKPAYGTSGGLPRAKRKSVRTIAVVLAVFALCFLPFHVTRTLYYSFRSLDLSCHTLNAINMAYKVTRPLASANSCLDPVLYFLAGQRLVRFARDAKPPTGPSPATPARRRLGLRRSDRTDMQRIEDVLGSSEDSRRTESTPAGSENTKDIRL
Active and inactive are the calls of the source. No cut-off for these calls is given here.
value-kind: Activity

O=c1ccn(COCCO[PH](=O)O)c(=O)[nH]1	inactive
O=c1ccn(COCCOP(=O)(O)O)c(=O)[nH]1	inactive
O=c1ccn(COCCOP(=S)(S)OP(=O)(O)OP(=O)(O)O)c(=O)[nH]1 (configuration not stated)	inactive
O=c1ccn(COCCOP(=O)(O)C(Cl)(Cl)P(=O)(O)O)c(=O)[nH]1	inactive
O=c1ccn(COCCOP(=S)(S)OP(=O)(O)O)c(=O)[nH]1 (configuration not stated)	inactive

Inquiry: Value lookup for Activity; key = O=c1ccn(COCCOP(=S)(S)OP(=O)(O)C(Cl)(Cl)P(=O)(O)O)c(=O)[nH]1 (configuration not stated)
Reply text: inactive

Inquiry: Moving on to O=c1ccn(COCCOP(=S)(S)OP(=O)(O)CP(=O)(O)O)c(=O)[nH]1 (configuration not stated)
Reply text: inactive

----------
molecular target: P2Y purinoceptor 2 (Homo sapiens) (UniProt P41231); test: Antagonist activity at human P2Y2 receptor expressed in AD293 cells assessed as inhibition of UTP-induced inositol-1-phosphate accumulation at 100 uM; format: functional, cell-based
Calls of active or inactive are those of the source. The calls are words filed in the database; no cut-off is given here.
value-kind: inhibition

O=c1ccn(COCCOP(=O)(O)C(Cl)(Cl)P(=O)(O)O)c(=O)[nH]1	inactive
O=c1ccn(COCCO[PH](=O)O)c(=O)[nH]1	inactive
O=c1ccn(COCCOP(=S)(S)OP(=O)(O)CP(=O)(O)O)c(=O)[nH]1 (configuration not stated)	inactive
O=c1ccn(COCCOP(=S)(S)OP(=O)(O)C(Cl)(Cl)P(=O)(O)O)c(=O)[nH]1 (configuration not stated)	inactive
O=c1ccn(COCCOP(=S)(S)OP(=O)(O)O)c(=O)[nH]1 (configuration not stated)	inactive
O=c1ccn(COCCOP(=O)(O)O)c(=O)[nH]1	inactive

Kindly review the next compound as well.
Inquiry: Can you share its inhibition? I mean this compound: O=c1ccn(COCCOP(=S)(S)OP(=O)(O)OP(=O)(O)O)c(=O)[nH]1 (configuration not stated)
Reply text: inactive

----------
biological target: Ectonucleotide pyrophosphatase/phosphodiesterase family member 3 (Homo sapiens); assay: Inhibition of human NPP3 expressed in COS7 cell membranes at 100 uM using pNP-TMP as substrate preincubated for 3 mins followed by substrate addition and measured after 15 mins
Calls of active or inactive are those of the source. The rule behind the calls is not given here.
Please reply with one of these outcomes: 1 (yes) (active), 0 (no) (inactive)

Answered examples (3):
O=c1ccn(COCCOP(=O)(O)CP(=O)(O)O)c(=O)[nH]1	1 (yes)
O=c1ccn(COCCOP(=O)(O)O)c(=O)[nH]1	0 (no)
O=c1ccn(COCCO[PH](=O)O)c(=O)[nH]1	0 (no)

Inquiry: Each compound tested received a call. Report the one for O=c1ccn(COCCOP(=O)(O)C(Cl)(Cl)P(=O)(O)O)c(=O)[nH]1 .
Reply text: 1 (yes)

----------
Molecular target: UniProt Q5MY95
Sequence (whole entry): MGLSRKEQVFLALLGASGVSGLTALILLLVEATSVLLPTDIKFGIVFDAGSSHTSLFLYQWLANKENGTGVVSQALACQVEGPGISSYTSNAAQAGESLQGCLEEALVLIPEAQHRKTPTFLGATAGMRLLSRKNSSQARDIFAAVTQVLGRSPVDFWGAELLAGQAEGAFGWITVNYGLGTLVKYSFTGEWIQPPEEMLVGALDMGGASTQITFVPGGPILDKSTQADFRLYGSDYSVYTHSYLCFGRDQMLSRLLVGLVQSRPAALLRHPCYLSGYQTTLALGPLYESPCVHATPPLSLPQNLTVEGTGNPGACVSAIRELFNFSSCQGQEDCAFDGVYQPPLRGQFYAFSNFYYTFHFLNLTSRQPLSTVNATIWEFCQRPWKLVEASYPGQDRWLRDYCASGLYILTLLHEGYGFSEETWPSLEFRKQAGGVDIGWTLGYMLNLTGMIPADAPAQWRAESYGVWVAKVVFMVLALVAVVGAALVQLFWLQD
Assay: Inhibition of human NTPdase-8 expressed in COS7 cell membranes at 100 uM using ATP as substrate preincubated for 3 mins followed by susbtrate addition and measured after 10 mins by malachite green dye based method
Activity calls are given as the source filed them. No cut-off for these calls is given here.
Hello, when you answer, please use one of the following outcomes: active, inactive

See these solved cases before continuing.
O=c1ccn(COCCOP(=O)(O)CP(=O)(O)O)c(=O)[nH]1	active
O=c1ccn(COCCO[PH](=O)O)c(=O)[nH]1	inactive
O=c1ccn(COCCOP(=O)(O)C(Cl)(Cl)P(=O)(O)O)c(=O)[nH]1	active
O=c1ccn(COCCOP(=O)(O)O)c(=O)[nH]1	inactive

Inquiry: Name the outcome recorded for O=c1ccn(COCCOP(=S)(S)OP(=O)(O)C(Cl)(Cl)P(=O)(O)O)c(=O)[nH]1 (stereo unspecified) in the assay.
Reply text: active

Inquiry: What would you report for O=c1ccn(COCCOP(=S)(S)OP(=O)(O)CP(=O)(O)O)c(=O)[nH]1 (stereo unspecified) ?
Reply text: active

----------
Listed next: entries and their corresponding Ki.
molecular target: Ectonucleotide pyrophosphatase/phosphodiesterase family member 1 (Homo sapiens, UniProt P22413); assay: Inhibition of human NPP1 expressed in COS7 cell membranes using pNP-TMP as substrate preincubated for 3 mins followed by substrate addition and measured after 15 mins by Dixon plot analysis
Sequence (P22413 whole entry): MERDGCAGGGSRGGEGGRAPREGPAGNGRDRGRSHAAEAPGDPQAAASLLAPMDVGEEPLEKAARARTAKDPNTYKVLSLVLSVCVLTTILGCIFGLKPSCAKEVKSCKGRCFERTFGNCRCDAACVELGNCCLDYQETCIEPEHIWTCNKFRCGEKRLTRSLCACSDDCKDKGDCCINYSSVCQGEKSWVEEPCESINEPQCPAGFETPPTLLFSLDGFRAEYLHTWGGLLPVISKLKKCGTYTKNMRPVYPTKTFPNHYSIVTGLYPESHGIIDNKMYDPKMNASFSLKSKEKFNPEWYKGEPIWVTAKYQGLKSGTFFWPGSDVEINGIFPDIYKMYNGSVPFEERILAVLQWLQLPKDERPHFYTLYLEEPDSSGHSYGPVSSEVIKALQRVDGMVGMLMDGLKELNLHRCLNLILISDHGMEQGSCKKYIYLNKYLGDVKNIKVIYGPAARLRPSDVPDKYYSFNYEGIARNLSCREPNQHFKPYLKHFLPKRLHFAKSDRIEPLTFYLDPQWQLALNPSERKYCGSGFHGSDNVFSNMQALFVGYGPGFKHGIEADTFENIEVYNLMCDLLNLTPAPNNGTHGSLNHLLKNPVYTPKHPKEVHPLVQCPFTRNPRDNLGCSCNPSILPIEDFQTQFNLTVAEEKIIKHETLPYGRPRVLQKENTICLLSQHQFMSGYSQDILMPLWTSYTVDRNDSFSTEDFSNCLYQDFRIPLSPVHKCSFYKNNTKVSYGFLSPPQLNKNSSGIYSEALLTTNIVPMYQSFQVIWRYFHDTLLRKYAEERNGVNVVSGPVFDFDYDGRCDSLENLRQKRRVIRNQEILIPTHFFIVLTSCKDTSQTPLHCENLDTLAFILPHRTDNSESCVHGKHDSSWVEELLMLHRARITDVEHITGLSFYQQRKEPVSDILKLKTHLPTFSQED
Give the quantity in nM, number only.

Inquiry: Tell me the measured Ki of O=c1ccn(COCCOP(=S)(S)OP(=O)(O)OP(=O)(O)O)c(=O)[nH]1 (centres undefined) , please.
Reply text: 1280

Inquiry: Thanks! And O=c1ccn(COCCOP(=S)(S)OP(=O)(O)CP(=O)(O)O)c(=O)[nH]1 (centres undefined) ?
Reply text: 940

Inquiry: Entry O=c1ccn(COCCOP(=S)(S)OP(=O)(O)C(Cl)(Cl)P(=O)(O)O)c(=O)[nH]1 (centres undefined) please
Reply text: 730

Inquiry: Entry to check: O=c1ccn(COCCOP(=S)(S)OP(=O)(O)O)c(=O)[nH]1 (centres undefined)
Reply text: 2830

----------
species on record: Homo sapiens; experiment: Inhibition of alkaline phosphatase in human primary chondrocyte at 100 uM using p-nitrophenyl phosphate as substrate after 30 mins by […] relative to control
# inhibition values compiled below

O=c1ccn(COCCOP(=S)(S)OP(=O)(O)CP(=O)(O)O)c(=O)[nH]1 (centres undefined)	< 10%
O=c1ccn(COCCOP(=S)(S)OP(=O)(O)OP(=O)(O)O)c(=O)[nH]1 (centres undefined)	< 10%
O=c1ccn(COCCOP(=S)(S)OP(=O)(O)C(Cl)(Cl)P(=O)(O)O)c(=O)[nH]1 (centres undefined)	< 10%

Okay, next one:
Inquiry: # lookup: inhibition of O=c1ccn(COCCOP(=S)(S)OP(=O)(O)O)c(=O)[nH]1 (centres undefined)
Reply text: < 10%
